The reported measurements were obtained from patent US8859620B2.

biological target: OXA-10 (class D β-lactamase) (Pseudomonas aeruginosa, UniProt P14489); assay: β-Lactamase assay (nitrocefin colour change), OXA-10; format: biochemical; details: Table 10; class symbols x/xx/xxx, key not given
Sequence (P14489 20-266, species assumed): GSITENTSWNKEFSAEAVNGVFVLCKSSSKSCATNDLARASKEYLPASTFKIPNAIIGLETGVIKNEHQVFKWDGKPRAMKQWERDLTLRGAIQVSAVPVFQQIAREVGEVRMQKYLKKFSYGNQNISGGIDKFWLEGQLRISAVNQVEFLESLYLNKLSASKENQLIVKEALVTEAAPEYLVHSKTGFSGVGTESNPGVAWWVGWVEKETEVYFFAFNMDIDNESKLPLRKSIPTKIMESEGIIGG
EXPERIMENTAL READOUT: OXA-10

Example entries and their recorded answers appear below.
[
  {
    "COMPOUND": "NC(=O)C1=C(C(=O)O)SCCS1",
    "EXPERIMENTAL SYSTEM": "OXA-10 (class D β-lactamase) (Pseudomonas aeruginosa, UniProt P14489)",
    "OXA-10": "xx"
  },
  {
    "COMPOUND": "CCCCCCCCOc1ccc(NC(=O)c2c(Cl)c(Cl)c(Cl)c(Cl)c2C(=O)O)cn1",
    "EXPERIMENTAL SYSTEM": "OXA-10 (class D β-lactamase) (Pseudomonas aeruginosa, UniProt P14489)",
    "OXA-10": "xxx"
  },
  {
    "COMPOUND": "CCCCCCCCOc1ccc(NC(=O)c2c(Br)c(Br)c(Br)c(Br)c2C(=O)O)c[n+]1[O-]",
    "EXPERIMENTAL SYSTEM": "OXA-10 (class D β-lactamase) (Pseudomonas aeruginosa, UniProt P14489)",
    "OXA-10": "xxx"
  },
  {
    "COMPOUND": "CC(Oc1ccc(NC(=O)c2c(Br)c(Br)c(Br)c(Br)c2C(=O)O)cc1Cl)c1ccccc1 (stereo not shown)",
    "EXPERIMENTAL SYSTEM": "OXA-10 (class D β-lactamase) (Pseudomonas aeruginosa, UniProt P14489)",
    "OXA-10": "xxx"
  },
  {
    "COMPOUND": "CCCCCCCCOc1ccc(NC(=O)c2c(Cl)c(Cl)c(Cl)c(Cl)c2C(=O)O)c[n+]1[O-]",
    "EXPERIMENTAL SYSTEM": "OXA-10 (class D β-lactamase) (Pseudomonas aeruginosa, UniProt P14489)",
    "OXA-10": "xxx"
  },
  {
    "COMPOUND": "O=C(O)c1c(Br)c(Br)c(Br)c(Br)c1C(=O)Nc1ccc(OCc2ccccc2)nc1",
    "EXPERIMENTAL SYSTEM": "OXA-10 (class D β-lactamase) (Pseudomonas aeruginosa, UniProt P14489)",
    "OXA-10": "xx"
  },
  {
    "COMPOUND": "O=C(O)c1c(F)c(F)c(F)c(F)c1C(=O)Nc1ccc(OCc2cccc(OC(F)(F)F)c2)c(Cl)c1",
    "EXPERIMENTAL SYSTEM": "OXA-10 (class D β-lactamase) (Pseudomonas aeruginosa, UniProt P14489)",
    "OXA-10": "xx"
  },
  {
    "COMPOUND": "O=C(O)c1c(Cl)c(Cl)c(Cl)c(Cl)c1C(=O)Nc1ccc(Cl)c(C(F)(F)F)c1",
    "EXPERIMENTAL SYSTEM": "OXA-10 (class D β-lactamase) (Pseudomonas aeruginosa, UniProt P14489)",
    "OXA-10": "xx"
  },
  {
    "COMPOUND": "O=C(O)c1c(Br)c(Br)c(Br)c(Br)c1C(=O)Nc1ccc(CO)cc1",
    "EXPERIMENTAL SYSTEM": "OXA-10 (class D β-lactamase) (Pseudomonas aeruginosa, UniProt P14489)",
    "OXA-10": "xxx"
  },
  {
    "COMPOUND": "CCCCCCCCOc1ccc(N(C)C(=O)c2c(F)c(F)c(F)c(F)c2C(=O)O)cc1",
    "EXPERIMENTAL SYSTEM": "OXA-10 (class D β-lactamase) (Pseudomonas aeruginosa, UniProt P14489)",
    "OXA-10": "xx"
  }
]

Answer with reported OXA-10 of O=C1C2=C(SCCS2)C(=O)N1[C@@H](CO)[C@@H](O)c1ccc([N+](=O)[O-])cc1 xx

Answer with reported OXA-10 of O=C(O)c1c(Cl)c(Cl)c(Cl)c(Cl)c1C(=O)Nc1ccc(OCc2ccccc2)c(Cl)c1 xxx

Answer with reported OXA-10 of O=C(O)c1c(Br)c(Br)c(Br)c(Br)c1C(=O)Nc1ccc(Oc2cc(C(F)(F)F)cc(C(F)(F)F)c2)cc1 xxx

Answer with reported OXA-10 of CCCCCCCCCCCCCCCCOc1ccc(NC(=O)c2c(Br)c(Br)c(Br)c(Br)c2C(=O)O)cc1 xxx

Answer with reported OXA-10 of CC(Oc1ccc(NC(=O)c2c(Cl)c(Cl)c(Cl)c(Cl)c2C(=O)O)cc1Cl)c1ccccc1 (stereo not shown) xxx

Answer with reported OXA-10 of O=C(O)c1c(Cl)c(Cl)c(Cl)c(Cl)c1C(=O)Nc1ccc(Oc2cc(C(F)(F)F)cc(C(F)(F)F)c2)cc1 xxx

###

system: S. aureus NRS11 (Mec^S); assay: MIC against S. aureus NRS11 (Table 13); format: cell-based, Staphylococcus aureus; settings: Staphylococcus aureus, compounds dissolved in DMSO or 1% sodium carbonate, read-out: MIC
Listed next: entries and their corresponding log10 of MIC.
Hey, these are logged values: log10 of MIC, µg/mL being the unit before logging.

Example entries and their recorded answers appear below.
[
  {
    "MOLECULE": "CCCCOC(=O)c1ccc(NC(=O)c2c(Br)c(Br)c(Br)c(Br)c2C(=O)O)cc1",
    "log10 of MIC": 2.11
  },
  {
    "MOLECULE": "CCCCCCCCOc1ccc(NC(=O)c2c(F)c(F)c(F)c(F)c2C(=O)O)cn1",
    "log10 of MIC": 2.41
  },
  {
    "MOLECULE": "O=C(O)c1c(Br)c(Br)c(Br)c(Br)c1C(=O)Nc1ccc(OCc2ccccc2)nc1",
    "log10 of MIC": 0.90
  },
  {
    "MOLECULE": "CCCCOC(=O)c1ccc(NC(=O)c2ccccc2C(=O)O)cc1",
    "log10 of MIC": 3.30
  },
  {
    "MOLECULE": "CCCCCCCCOc1ccc(NC(=O)c2ccccc2C(=O)O)cn1",
    "log10 of MIC": 2.41
  }
]

Answer with reported log10 of MIC of CCCCOC(=O)c1ccc(NC(=O)c2c(F)c(F)c(F)c(F)c2C(=O)O)cc1 3.30

Answer with reported log10 of MIC of Cc1ccccc1COc1ccc(NC(=O)c2c(Cl)c(Cl)c(Cl)c(Cl)c2C(=O)O)cc1Cl 1.20

###

molecular target: OXA-10 (class D β-lactamase) (Pseudomonas aeruginosa, UniProt P14489); experiment: β-Lactamase assay (nitrocefin colour change), OXA-10; format: biochemical; settings: Table 10; class symbols x/xx/xxx, key not given
EXPERIMENTAL READOUT: OXA-10

[
  {
    "COMPOUND": "CCCCCCCCCCCCCCCCOc1ccc(NC(=O)c2c(Cl)c(Cl)c(Cl)c(Cl)c2C(=O)O)cc1 [Compound 290]",
    "RESULT": "xxx"
  },
  {
    "COMPOUND": "CCCCCCCCOc1ccc(NC(=O)c2ccccc2C(=O)O)cc1Cl [Compound 300]",
    "RESULT": "xx"
  },
  {
    "COMPOUND": "CCCCCCCCOc1ccc(NC(=O)c2c(Br)c(Br)c(Br)c(Br)c2C(=O)O)cc1 [Compound 274]",
    "RESULT": "xxx"
  },
  {
    "COMPOUND": "N#Cc1cccc(NC(=O)c2c(Br)c(Br)c(Br)c(Br)c2C(=O)[O-])c1.[Na+] [Compound 201]",
    "RESULT": "xx"
  },
  {
    "COMPOUND": "CCCCCCCCOc1ccc(NC(=O)c2c(Cl)c(Cl)c(Cl)c(Cl)c2C(=O)O)cc1 [Compound 265]",
    "RESULT": "xxx"
  },
  {
    "COMPOUND": "O=C(O)c1c(Cl)c(Cl)c(Cl)c(Cl)c1C(=O)Nc1ccc(OCc2cccc(C(F)(F)F)c2)c(Cl)c1 [Compound 389]",
    "RESULT": "xxx"
  }
]

Answer with reported OXA-10 of O=C(O)c1c(Cl)c(Cl)c(Cl)c(Cl)c1C(=O)Nc1ccc(CO)cc1 [Compound 254] xx

Answer with reported OXA-10 of O=C(O)c1c(Br)c(Br)c(Br)c(Br)c1C(=O)Nc1ccc(OCc2cccc(C(F)(F)F)c2)c(Cl)c1 [Compound 390] xxx

###

molecular target: surface domain of B1aR (Staphylococcus aureus, UniProt P18357); experiment: B1aR assay (BOCILLIN FL labeling, SDS-PAGE); type: binding, Staphylococcus aureus (MRSA); details: Table 10; class symbols x/xx/xxx, key not given
Sequence (P18357 331-585): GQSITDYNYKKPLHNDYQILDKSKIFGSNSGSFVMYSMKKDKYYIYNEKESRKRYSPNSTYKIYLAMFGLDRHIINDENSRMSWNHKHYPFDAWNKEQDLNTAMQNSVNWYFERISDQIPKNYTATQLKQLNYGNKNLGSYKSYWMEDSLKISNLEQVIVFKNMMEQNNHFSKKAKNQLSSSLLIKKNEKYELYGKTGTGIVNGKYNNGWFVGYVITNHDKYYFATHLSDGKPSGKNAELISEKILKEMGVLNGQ
EXPERIMENTAL READOUT: BlaR

[
  {
    "MOLECULE": "O=C(O)c1ccccc1C(=O)Nc1ccc(OCc2cccc(OC(F)(F)F)c2)c(Cl)c1 [Compound 417]",
    "BlaR": "xx"
  },
  {
    "MOLECULE": "CCCCCCCCCCCCCCCCOc1ccc(NC(=O)c2c(Cl)c(Cl)c(Cl)c(Cl)c2C(=O)O)cc1 [Compound 290]",
    "BlaR": "xxx"
  },
  {
    "MOLECULE": "CCCCCCCCOc1ccc(NC(=O)c2c(F)c(F)c(F)c(F)c2C(=O)O)cc1 [Compound 271]",
    "BlaR": "xxx"
  },
  {
    "MOLECULE": "CCCCCCCCCCOc1ccc(N(C)C(=O)c2c(F)c(F)c(F)c(F)c2C(=O)O)cc1 [Compound 319]",
    "BlaR": "xxx"
  },
  {
    "MOLECULE": "CCCCCCCCCCOc1ccc(N(C)C(=O)c2c(Br)c(Br)c(Br)c(Br)c2C(=O)O)cc1 [Compound 316]",
    "BlaR": "xx"
  }
]

Proceed to the following item.
Answer with reported BlaR of O=C(O)c1c(Br)c(Br)c(Br)c(Br)c1C(=O)Nc1ccc(Oc2cc(C(F)(F)F)cc(C(F)(F)F)c2)cc1 [Compound 414] xxx
